System: UISO
protocol.text: qHTS assay to identify novel small-molecules to repurpose for Merkel cell carcinoma treatment (AID 1296009); note: % is set by controls: 0 for no effect and ±100 for the full control effect; nearly all actives have a fitted effect of over 60% in size
run.conditions: MCC and control cell lines, CellTiter-Glo viability, 72 h; series mostly up to 46 µM
Records with an inconclusive call do not appear. Active and inactive are the calls of the source. Calls come from the whole dose curve; as a rule, active = well fitted inhibition curve with a large enough effect; inconclusive = small, poorly fitted or top-dose-only effect; inactive = flat fitted curve, though single readings scatter.
Just give me one of these, please: 1 for active, -1 for inactive

Use the examples below as a reference point.
| molecule | classification |
| --- | --- |
| C=C1c2cccc(O)c2C(O)=C2C(=O)[C@]3(O)C(O)=C(C(N)=O)C(=O)[C@@H](N(C)C)[C@@H]3[C@@H](O)[C@H]12 | -1 |
| Nc1ccc(C(=O)NCC(=O)O)cc1 | -1 |
| NC(=O)C1(N2CCCCC2)CCN(CCCC(=O)c2ccc(F)cc2)CC1 | -1 |
| N#CCC(=O)NN | -1 |

QUERY: GET /call?item= `CCCCCCCCCCCCCCC[C@H](O)[C@@H](N)CO` returns the recorded outcome of this test.
RESULT: -1

QUERY: GET /call?item= `CC(C)[C@@H]1CC[C@@H](C)CC1=O` returns the recorded outcome of this test.
RESULT: -1

QUERY: GET /call?item= `CCN(CC)CCOc1ccccc1C(=O)CCc1ccccc1` returns the recorded outcome of this test.
RESULT: -1

QUERY: GET /call?item= `CCCCN=C(N)N=C(N)N` returns the recorded outcome of this test.
RESULT: -1

QUERY: GET /call?item= `C[C@@H](O)[C@H]1C(=O)N2C(C(=O)O)=C(S[C@@H]3CN[C@H](CNS(N)(=O)=O)C3)[C@H](C)[C@H]12` returns the recorded outcome of this test.
RESULT: -1

QUERY: GET /call?item= CCc1ccc(C(=O)C(C)CN2CCCCC2)cc1 (centres undefined) returns the recorded outcome of this test.
RESULT: -1

QUERY: GET /call?item= `CC(=O)Nc1ccc(OC(=O)c2ccccc2OC(C)=O)cc1` returns the recorded outcome of this test.
RESULT: -1

QUERY: GET /call?item= Clc1cccc(C(c2ccc3nc[nH]c3c2)n2ccnc2)c1 (centres undefined) returns the recorded outcome of this test.
RESULT: -1

QUERY: GET /call?item= `COc1ccc(S(=O)(=O)N2c3ccc(Cl)cc3[C@@](O)(c3ccccc3Cl)[C@H]2C(=O)N2CCC[C@@H]2C(N)=O)cc1OC` returns the recorded outcome of this test.
RESULT: -1

QUERY: GET /call?item= `CCN(CC)CCNC(=O)c1cc(Br)c(N)cc1OC` returns the recorded outcome of this test.
RESULT: -1

QUERY: GET /call?item= FC1(F)C(F)(F)C(F)(F)C2(F)C(F)(F)C(F)(F)C(F)(F)C(F)(F)C2(F)C1(F)F (centres undefined) returns the recorded outcome of this test.
RESULT: -1

QUERY: GET /call?item= `CN(Cc1ccc(C(C)(C)C)cc1)Cc1cccc2ccccc12` returns the recorded outcome of this test.
RESULT: -1

QUERY: GET /call?item= COP(=O)(OC)OC(c1ccc(Cl)cc1)P(=O)(OC)OC (centres undefined) returns the recorded outcome of this test.
RESULT: -1

QUERY: GET /call?item= `NS(=O)(=O)Cc1noc2ccccc12` returns the recorded outcome of this test.
RESULT: -1

QUERY: GET /call?item= `CCCCCCCCCCCCCCCC(=O)O` returns the recorded outcome of this test.
RESULT: -1

====

System: CP268
protocol.text: qHTS profiling for inhibitors of Plasmodium falciparum proliferation (AID 504749); note: nearly all actives have a fitted effect of over 60% in size; note: potency is the fitted concentration of half-maximal effect
run.conditions: P. falciparum in erythrocytes, SYBR Green DNA, 72 h; series mostly up to 28.7 µM
Experimental: NIH National Institute of Allergy and Infectious Diseases [NIAID] NIH Chemical Genomics Center [NCGC] […] Because mature erythrocytes lack DNA, only Plasmodium-derived DNA is detected. NCGC Assay Protocol Summary: The SYBR Green viability assay was adapted from a method described previously (Plouffe et al., 2008). […] The following morning, fluorescence intensity at 485(14) nm excitation and 535(25) nm emission wavelengths was measured on an EnVision (Perkin Elmer) plate reader. […]
Inconclusive results are not listed. Activity calls are given as the source filed them. The call rests on the fitted dose curve; in most records, active means well fitted inhibition curve with a large enough effect; inconclusive means small, poorly fitted or top-dose-only effect; inactive means flat fitted curve, though single readings scatter.
property.measured: Potency

| compound | measured.on | Potency |
| --- | --- | --- |
| CC(C)Cc1ccc(CC(=O)O)cc1 | CP268 | inactive |
| FC1(F)C(F)(F)C(F)(F)C2(F)C(F)(F)C(F)(F)C(F)(F)C(F)(F)C2(F)C1(F)F (centres undefined) | CP268 | inactive |
| CCCCCCCCCCCCSCCOCCO | CP268 | inactive |
| O=C(Nc1ncc([N+](=O)[O-])s1)c1cccs1 | CP268 | inactive |
| CC(=O)NC(=O)c1ccccc1O | CP268 | inactive |

I have 6 compounds here; please give me Potency for each one.
1. COc1ccccc1N1CCN(CCCCNC(=O)c2ccc(-c3ccc(C(C)=O)cc3)cc2)CC1
2. COc1cc(O)c(C(=O)c2ccccc2)cc1S(=O)(=O)O
3. COP(=O)(OC)OC(c1ccc(Cl)cc1)P(=O)(OC)OC (centres undefined)
4. O=C(Nc1ccc([N+](=O)[O-])cc1)Nc1ccc([N+](=O)[O-])cc1
5. CCCCCCCCNC(C)C(O)c1ccc(SC(C)C)cc1 (centres undefined)
6. CC(=O)Nc1ncc([N+](=O)[O-])s1

RESULT:
1: inactive; 2: inactive; 3: inactive; 4: inactive; 5: 1.51 µM (active); 6: inactive

====

measured.on: Glucocorticoid receptor (Homo sapiens)
protocol.text: GR-GFP Redistribution (AID 450); note: potency is the fitted concentration of half-maximal effect
run.conditions: U2OS GR-GFP nuclear translocation, laser cytometry, 2 h
Activity calls are given as the source filed them.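 Rule for the calls: active = compounds whose dose series gives a full or clear partial fitted curve of increased nuclear translocation; inconclusive = weak partial curve or effect only at the top dose; inactive = no dose-dependent translocation response.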
Assignment: determine reported Potency for the given molecules.

Example results:
| smiles | Potency |
| --- | --- |
| O=C(c1ccc(F)cc1)C1CCN(CCn2c(=S)[nH]c3ccccc3c2=O)CC1 | > 46 µM (inactive) |
| CN(C)CCC[C@@]1(c2ccc(F)cc2)OCc2cc(C#N)ccc21 | > 46 µM (inactive) |
| CNCCCCOc1ccccc1Cc1ccccc1 | > 46 µM (inactive) |

QUERY: Provide only the value of recorded Potency for `CCCCNc1ccc(C(=O)OCCOCCOCCOCCOCCOCCOCCOCCOCCOC)cc1`
RESULT: > 20.6 µM (inactive)

====

Tested on: CP291
protocol.text: qHTS profiling for inhibitors of Plasmodium falciparum proliferation (AID 504749); note: nearly all actives have a fitted effect of over 60% in size
run.conditions: P. falciparum in erythrocytes, SYBR Green DNA, 72 h; series mostly up to 28.7 µM
Records with an inconclusive call do not appear. The source made the active and inactive calls. The call rests on the fitted dose curve; in most records, active means well fitted inhibition curve with a large enough effect; inconclusive means small, poorly fitted or top-dose-only effect; inactive means flat fitted curve, though single readings scatter.
Just give me one of these, please: active, inactive

Use the examples below as a reference point.
| smiles | measured.on | classification |
| --- | --- | --- |
| OCc1ccccn1 | CP291 | inactive |
| CCC(CC)(CC(=O)Nc1cccc(/C=C/c2nc(C3CCC3)cs2)c1)C(=O)O | CP291 | inactive |
| CCCCCCCCCCCCCCCC(=O)O | CP291 | inactive |
| CC(C)(C)NC[C@H](O)COc1cccc2c1CCCC2=O | CP291 | inactive |
| CCCCCCCCCCCCCC(=O)OC(C)C | CP291 | inactive |

QUERY: GET /call?item= `Cc1cc(CC(=O)O)c(C)n1-c1ccc(Cl)cc1` returns the recorded outcome of this test.
RESULT: inactive

QUERY: GET /call?item= `CCOC(=O)c1ccc(N)cc1` returns the recorded outcome of this test.
RESULT: inactive

QUERY: GET /call?item= `COc1cc(N)c(Cl)cc1C(=O)NC1CCN(Cc2ccccc2)CC1` returns the recorded outcome of this test.
RESULT: inactive

QUERY: GET /call?item= `OCCOCCN1CCN(C2=Nc3ccccc3Sc3ccccc32)CC1` returns the recorded outcome of this test.
RESULT: inactive

====

protocol.text: qHTS assay for small molecule agonists of retinoid X receptor alpha signaling (AID 588544)
run.conditions: HEK293T RXRa-UAS-bla, beta-lactamase reporter, 18 h; 530 nm emission
Records with an inconclusive call do not appear.
Assignment: determine reported max response for the given compounds.

Example results:
| smiles | property.measured | observed |
| --- | --- | --- |
| CCCCCCCCCCCCCCCCO | max response | 2.95% |
| CCCCCCCC/C=C\CCCCCCCCN | max response | -3% |
| C#C[C@]1(O)CC[C@H]2[C@@H]3CCC4=Cc5oncc5C[C@]4(C)[C@H]3CC[C@@]21C | max response | 27% |

I have 2 compounds here; please give me max response for each one.
1. NCCNc1cccc2ccccc12
2. COc1ccc(C(Cl)=C(c2ccc(OC)cc2)c2ccc(OC)cc2)cc1

RESULT:
15.9%
-9.29%

I have 4 compounds here; please give me max response for each one.
1. CCCCCCCCCCCCCCCC(=O)O
2. NC(=O)c1ccccc1O
3. CCCCCCCCCCCCCC(=O)OC(C)C
4. CCCCOC(=O)CC(CC(=O)OCCCC)(OC(C)=O)C(=O)OCCCC

RESULT:
1. -15.5%
2. -2.87%
3. -13.5%
4. 10.7%

QUERY: Provide only the value of recorded max response for `O=C(O)c1ccc(S(=O)(=O)N(Cl)Cl)cc1`
RESULT: -8.23%
